Numbers sourced from paper PMC5540273.

System: JNK2;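 also: KINOMEscan kinase panel screen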
Construct: gene MAPK9
TEST PARAMETERS: concentration: 1 μM, replicates: in singlicate; n = 1
Classification field: class 1 = %Inh at or over 60%; class 0 = %Inh under 60%.

• COc1ccc(Nc2nccc(N3CCC(NC(=O)Nc4cccc(C(C)=O)c4)C3)n2)cc1 (centres unmarked) = class 0
• Cc1ccc(C(=O)NCC(N)=O)cc1-n1c(C)cc(OCc2ccc(F)cc2F)c(Br)c1=O = class 0
• O=C(c1ccc(-c2cc(-c3c[nH]nc3-c3ccccn3)ccn2)cc1)N1CCOCC1 = class 0
• Cc1nnc(-c2ccc3ncc(-c4ccc(S(C)=O)cc4)n3c2)o1 (centres unmarked) = class 0
• Cl.Nc1ncnc2occ(-c3ccc(NC(=O)Nc4cc(C(F)(F)F)ccc4F)cc3)c12 = class 1

**Query** Say whether CC(C)Oc1ccc2c(-c3ccnc(Nc4ccc(N5CCN(C)CC5)cc4)n3)cnn2n1 shows %Inh of 60% or more.
**Result** class 1

**Query** Say whether COC(=O)Nc1nc2cc(Oc3ccc(NC(=O)Nc4cc(F)ccc4F)cc3)ccc2[nH]1.Cl shows %Inh of 60% or more.
**Result** class 0
